Item-by-item account of bioavailability
assay: Oral bioavailability in Sprague-Dawley rat at 3 mg/kg; format: ADME, organism-based; conditions: Sprague-Dawley, in vivo
Assay metric: bioavailability

                                smiles_data     assay_metric  reported
0  CCNC(=O)c1cc(F)ccc1CNC(=O)c1nc(C(C)(C)C)n(C)c(=O)c1O  bioavailability       30%
1  Cn1c(C(C)(C)C)nc(C(=O)NCc2ccc(F)cc2C(N)=O)c(O)c1=O  bioavailability       23%
2  CNC(=O)c1cc(F)ccc1CNC(=O)c1nc(C(C)(C)C)n(C)c(=O)c1O  bioavailability       18%
3  Cn1c(C(C)(C)C)nc(C(=O)NCc2ccc(F)cc2S(C)(=O)=O)c(O)c1=O  bioavailability       17%
